shrunken log2 fold change overview
test system: Escherichia coli TOP10; assay: shrunken log2 fold change of peptide-encoding DNA abundance (4.5 h post-induction vs induction); higher = less antimicrobial activity (less host growth inhibition); settings: time post-induction: 4.5 h; library: site-saturation at positions 5, 18, 19, 20
// no unit, no text: just the number

Below, 4 sequences whose answers are already recorded.
RRIRERPPRLPRPRPRPSLPPRP: -0.19
RRIRYRPPRLPRPRPRPMYHPRP: -0.707
RRIRTRPPRLPRPRPRPGPGPRP: 0.484
RRIRSRPPRLPRPRPRPNNRPRP: -0.475

Q: Reported shrunken log2 fold change, sequence `RRIRVRPPRLPRPRPRPSDNPRP` : ____
Result: -0.878

Q: Field entry: `RRIRERPPRLPRPRPRPVEPPRP`
Result: 0.0248

Q: Queued: `RRIRIRPPRLPRPRPRPYPWPRP`
Result: -1.06

Q: Next: `RRIRYRPPRLPRPRPRPMSYPRP`
Result: -0.0389

Q: Try this sequence too: `RRIRWRPPRLPRPRPRPFYRPRP`
Result: -0.179

Q: Again, but for `RRIRKRPPRLPRPRPRPMEDPRP`
Result: -0.00186

Q: Input `RRIRYRPPRLPRPRPRPVHMPRP`
Result: -0.0179

Q: Quick one: `RRIRNRPPRLPRPRPRPLDHPRP`
Result: -0.0699

Q: Please give the result for `RRIRGRPPRLPRPRPRPLWQPRP` too.
Result: 0.766

Q: Next sequence up: `RRIRCRPPRLPRPRPRPFTKPRP`
Result: -0.628

Q: Let us now turn to `RRIRSRPPRLPRPRPRPFCPPRP`
Result: -0.31

----------
test system: Escherichia coli TOP10; assay: shrunken log2 fold change of peptide-encoding DNA abundance (4.5 h post-induction vs induction); higher = less antimicrobial activity (less host growth inhibition); conditions: time post-induction: 4.5 h; library: site-saturation at positions 5, 18, 19, 20
Collected shrunken log2 fold change values appear next to each entry.
Answer using only a numeral; do not append any unit.

Q: Which shrunken log2 fold change is listed for `RRIRRRPPRLPRPRPRPTMKPRP` ?
Result: 0.286

----------
test system: Escherichia coli TOP10; experiment: shrunken log2 fold change of peptide-encoding DNA abundance (4.5 h post-induction vs induction); higher = less antimicrobial activity (less host growth inhibition); conditions: time post-induction: 4.5 h; library: site-saturation at positions 5, 18, 19, 20
Class field: derived from shrunken log2 fold change; ranges A = under -0.1, B = from -0.1 up to 0.03, C = 0.03 and over

Examples with answers:
RRIRDRPPRLPRPRPRPVAEPRP: C
RRIRWRPPRLPRPRPRPIPRPRP: C

Q: Bin this entry: `RRIRPRPPRLPRPRPRPPGQPRP`
Result: C

Q: Now try `RRIRHRPPRLPRPRPRPFSVPRP` .
Result: A

Q: For `RRIRYRPPRLPRPRPRPGFYPRP` then?
Result: A

Q: Another sequence to look at: `RRIRFRPPRLPRPRPRPESFPRP`
Result: B

Q: Record: `RRIRTRPPRLPRPRPRPDVIPRP`
Result: B

Q: How about `RRIRERPPRLPRPRPRPFQKPRP` ?
Result: A

Q: Moving on to the next sequence: `RRIRTRPPRLPRPRPRPCRYPRP`
Result: C

Q: Consider next the sequence `RRIRHRPPRLPRPRPRPYHSPRP` in the same way.
Result: B

Q: Can you check `RRIRARPPRLPRPRPRPSQMPRP` next?
Result: C

Q: Continue with `RRIRFRPPRLPRPRPRPWRIPRP`
Result: B

----------
Each entry below lists one item and its recorded shrunken log2 fold change value.
test system: Escherichia coli TOP10; assay: shrunken log2 fold change of peptide-encoding DNA abundance (4.5 h post-induction vs induction); higher = less antimicrobial activity (less host growth inhibition); details: time post-induction: 4.5 h; library: site-saturation at positions 5, 18, 19, 20
Answer using only a numeral; do not append any unit.

RRIRRRPPRLPRPRPRPPLPPRP: 1.06
RRIRMRPPRLPRPRPRPLCRPRP: 0.359
RRIRARPPRLPRPRPRPMYAPRP: 0.207
RRIRIRPPRLPRPRPRPDNKPRP: -0.703
RRIRVRPPRLPRPRPRPWKIPRP: -0.0261

Q: Item `RRIRPRPPRLPRPRPRPMSCPRP` has what recorded shrunken log2 fold change?
Result: -0.043

Q: Proceed to `RRIRNRPPRLPRPRPRPIIFPRP`
Result: -1.03

Q: Follow-up entry: `RRIRFRPPRLPRPRPRPKDFPRP`
Result: -0.158

Q: Next: `RRIRERPPRLPRPRPRPVTGPRP`
Result: -0.0257

Q: Now this one: `RRIRNRPPRLPRPRPRPESMPRP`
Result: 0.669

Q: Would you mind doing `RRIRHRPPRLPRPRPRPNFMPRP` as well?
Result: -0.5

Q: Would you kindly repeat that for `RRIRKRPPRLPRPRPRPPTFPRP` ?
Result: 0.149

Q: Same thing, different sequence: `RRIRFRPPRLPRPRPRPEYQPRP`
Result: -0.0212

Q: Same again, this time with `RRIRTRPPRLPRPRPRPTFLPRP`
Result: -0.0937

Q: Try this sequence too: `RRIRKRPPRLPRPRPRPFHWPRP`
Result: 0.111

----------
shrunken log2 fold change values, listed per item
tested on: Escherichia coli TOP10; experiment: shrunken log2 fold change of peptide-encoding DNA abundance (4.5 h post-induction vs induction); higher = less antimicrobial activity (less host growth inhibition); details: time post-induction: 4.5 h; library: site-saturation at positions 5, 18, 19, 20
Give the value as a plain number.

RRIRGRPPRLPRPRPRPAATPRP: 3.06

# next sequence below
Q: Bench note: what shrunken log2 fold change did `RRIRGRPPRLPRPRPRPINAPRP` show?
Result: 0.288

----------
sequences and their reported shrunken log2 fold change
system: Escherichia coli TOP10; assay: shrunken log2 fold change of peptide-encoding DNA abundance (4.5 h post-induction vs induction); higher = less antimicrobial activity (less host growth inhibition); details: time post-induction: 4.5 h; library: site-saturation at positions 5, 18, 19, 20

RRIRIRPPRLPRPRPRPMLTPRP: -0.00363
RRIRVRPPRLPRPRPRPLRGPRP: 0.764
RRIRLRPPRLPRPRPRPIGHPRP: -0.212
RRIRQRPPRLPRPRPRPCHKPRP: 0.0524

Q: Quick one: shrunken log2 fold change for `RRIRTRPPRLPRPRPRPNDDPRP` ?
Result: -0.519

Q: Further, for `RRIRTRPPRLPRPRPRPFDMPRP` ?
Result: -0.00208

Q: # repeat for `RRIRNRPPRLPRPRPRPRSVPRP`
Result: 0.258

Q: # repeat for `RRIRIRPPRLPRPRPRPQVNPRP`
Result: -0.444

Q: Query `RRIRERPPRLPRPRPRPGATPRP` next
Result: 0.148

Q: Next sequence up: `RRIRTRPPRLPRPRPRPAYKPRP`
Result: 0.0328

Q: Next sequence: `RRIRNRPPRLPRPRPRPMCVPRP`
Result: -0.166

Q: Next up: `RRIRPRPPRLPRPRPRPMNAPRP`
Result: -0.158

----------
Here, each record is paired with measured shrunken log2 fold change data.
system: Escherichia coli TOP10; test: shrunken log2 fold change of peptide-encoding DNA abundance (4.5 h post-induction vs induction); higher = less antimicrobial activity (less host growth inhibition); conditions: time post-induction: 4.5 h; library: site-saturation at positions 5, 18, 19, 20
Keep it simple and answer with nothing but the number.

Illustrative cases are given below, each with its answer.
RRIRARPPRLPRPRPRPQILPRP: -0.0605
RRIRTRPPRLPRPRPRPFNIPRP: -0.333
RRIRFRPPRLPRPRPRPDFEPRP: 0.0453

Q: Quick one: shrunken log2 fold change of `RRIRNRPPRLPRPRPRPFKTPRP` ?
Result: -0.0614

Q: Please do the same for `RRIRARPPRLPRPRPRPPNRPRP` as well.
Result: 0.499

Q: Next sequence: `RRIRGRPPRLPRPRPRPIYFPRP`
Result: -0.533

Q: Now the same for `RRIRWRPPRLPRPRPRPMCDPRP`
Result: 0.116

Q: Next record, please: `RRIRKRPPRLPRPRPRPVWMPRP`
Result: 0.136

Q: Please answer likewise for `RRIRFRPPRLPRPRPRPQHQPRP`
Result: -0.185

----------
tested on: Escherichia coli TOP10; experiment: shrunken log2 fold change of peptide-encoding DNA abundance (4.5 h post-induction vs induction); higher = less antimicrobial activity (less host growth inhibition); settings: time post-induction: 4.5 h; library: site-saturation at positions 5, 18, 19, 20;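 note: peptides expressed intracellularly from a pBAD plasmid library in pooled LB shake-flask culture, induced with 0.3% L-arabinose, DNA abundance read by NGS, three biological replicates, DESeq2 with apeglm shrinkage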
Decision: shrunken log2 fold change >= -0.2 yields class 1, all other cases yield class 0.

The following sequences have reported results that may help.
RRIRNRPPRLPRPRPRPWCCPRP: class 1
RRIRRRPPRLPRPRPRPVVSPRP: class 1
RRIRRRPPRLPRPRPRPCAVPRP: class 1
RRIRFRPPRLPRPRPRPHMTPRP: class 1
RRIRMRPPRLPRPRPRPTNRPRP: class 1
RRIRCRPPRLPRPRPRPHNIPRP: class 0

Q: Decide: is the reported value of shrunken log2 fold change for `RRIRCRPPRLPRPRPRPWDLPRP` equal to or greater than -0.2?
Result: class 1

Q: Entry to check: `RRIRERPPRLPRPRPRPQNEPRP`
Result: class 0

Q: How about this sequence: `RRIRKRPPRLPRPRPRPTRRPRP`
Result: class 1

Q: And `RRIRIRPPRLPRPRPRPCVWPRP` ?
Result: class 0

Q: Same question for `RRIRKRPPRLPRPRPRPDNPPRP` please.
Result: class 1

Data provenance is the supplement of paper PMC9112550.
